Molecular target: T1, human PrRP receptor GPR10 (human, UniProt P49683 1-370)
T1 construct: whole, on cells; also called GPR10 human receptor transfected in CHO cells; human GPR10 receptor
T1 sequence (looked up): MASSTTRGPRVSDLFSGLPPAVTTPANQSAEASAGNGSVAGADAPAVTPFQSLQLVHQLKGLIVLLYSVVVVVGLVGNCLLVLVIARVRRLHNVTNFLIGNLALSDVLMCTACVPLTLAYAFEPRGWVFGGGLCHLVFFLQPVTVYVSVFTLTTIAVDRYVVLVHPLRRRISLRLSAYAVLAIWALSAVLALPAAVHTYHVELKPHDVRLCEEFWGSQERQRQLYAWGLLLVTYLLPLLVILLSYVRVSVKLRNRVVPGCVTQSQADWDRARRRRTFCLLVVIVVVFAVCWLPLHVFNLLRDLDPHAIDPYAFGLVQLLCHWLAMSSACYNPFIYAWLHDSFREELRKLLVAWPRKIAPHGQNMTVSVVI
Test: competition with 125I-human PrRP31, CHO cells with human GPR10
Numbered stars: 1 amine (or outer) side, 2 acyl side, 3 side chain; on linkers, the order of the positions; unused ones are H or OH. Square brackets hold non-standard residues; d marks the D form. Side chains are listed from the residue outwards. Ends that are not written are not given here. * marks the point of attachment. Phe(F5) = N[C@@H](Cc1c(F)c(F)c(F)c(F)c1F)C(=O)O; γGlu = O=C(O)[C@H](CCC(=O)[*:2])N[*:1]; 1Nal = N[C@@H](Cc1cccc2ccccc12)C(=O)O; Palmitoyl = CCCCCCCCCCCCCCCC(=O)*; Myristoyl = CCCCCCCCCCCCCC(=O)*; PheNO2 = nitrophenylalanine; Decanoyl = CCCCCCCCCC(=O)*; Nle = CCCC[C@H](N)C(=O)O
measurement-label: % of PrRP31 (%)

Here are 3 binders together with their reported answers.
binder="SRAHQHS[Nle]ETRTPDINPAWYTGRGIRPVGR[1Nal]-NH2 [analog no. 10]" measurement=11
binder="TPDINPAWYASRPFRPVGRF-NH2 [analog no. 33]" measurement=225
binder="SRTHRHSMEIK([γGlu-Palmitoyl])TPDINPAWYASRGIRPVGRF-NH2 (also called compound 52) [analog no. 52]" measurement=65

I. TPDINPAWYTGRGIRPVGRF-NH2 (synthetic peptide) [Rat PrRP20]
II. Decanoyl-SRAHQHS[Nle]ETRTPDINPAWYTGRGIRPVGRF-NH2 [analog no. 5]
III. SRAHQHS[Nle]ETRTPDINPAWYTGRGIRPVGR[Phe(F5)]-NH2 [analog no. 21]
IV. Myristoyl-SHQRPADTHWYPRG[Nle]FPTIGRITARNGEVSR (scrambled peptide; also called 20 scram) [analog no. 20]
V. SRTHRHSMEIKTPDINPAWYASRGIRPVGRF-NH2 (not fully specified (residue 11)) [analog no. 57]
input: Rank descending by % of PrRP31. Your reply should list the labels following the order given in the request.
output: II, V, I, III, IV
(II: 266%, V: 103%, I: 70%, III: 45%, IV: 1.5%)

I. Myristoyl-SRAHQHS[Nle]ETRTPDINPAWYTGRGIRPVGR[1Nal]-NH2 [analog no. 11]
II. SRAHQHS[Nle]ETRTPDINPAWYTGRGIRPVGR[PheNO2]-NH2 [analog no. 16]
III. SRAHQHS[Nle]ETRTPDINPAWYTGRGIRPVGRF-NH2 [analog no. 3]
input: Rank descending by % of PrRP31. Your reply should list the labels following the order given in the request.
output: I, III, II
